Exercise: for every item that follows, state its recorded IC50.
- measurement-notes: Antiproliferative activity against human HT1080 cells assessed as growth inhibition incubated for 48 hrs by sulforhodamine B assay
- Type: functional, cell-based, HT-1080
- applied-conditions: Homo sapiens, HT-1080, 48 h; read-out: IC50
Write the value in nM as a bare number.

Any idea what IC50 was measured for `Cc1cccc(OS(=O)(=O)c2ccc(NC(=O)NCCCl)cc2)c1` ?
5800

Would you mind doing `O=C(NCCCl)Nc1ccc(S(=O)(=O)Oc2cc(Br)cc(Br)c2)cc1` as well?
400

Would you mind doing `O=C(NCCCl)Nc1ccc(S(=O)(=O)Oc2cccc(Br)c2)cc1` as well?
2000

Would you mind doing `CC(C)(C)c1ccc(OS(=O)(=O)c2ccc(NC(=O)NCCCl)cc2)cc1` as well?
6800

Would you mind doing `CCCc1cccc(OS(=O)(=O)c2ccc(NC(=O)NCCCl)cc2)c1` as well?
2600

Would you mind doing `Cc1cccc(C)c1OS(=O)(=O)c1ccc(NC(=O)NCCCl)cc1` as well?
1100

Would you mind doing `Cc1ccc(OS(=O)(=O)c2ccc(NC(=O)NCCCl)cc2)c(C)c1` as well?
1300

Would you mind doing `CCc1ccccc1OS(=O)(=O)c1ccc(NC(=O)NCCCl)cc1` as well?
1200

Would you mind doing `O=C(NCCCl)Nc1ccc(S(=O)(=O)Oc2ccc(Cl)cc2)cc1` as well?
5900

Would you mind doing `O=C(NCCCl)Nc1ccc(S(=O)(=O)Oc2cc(Cl)c(Cl)cc2Cl)cc1` as well?
1400

Would you mind doing `COc1ccccc1OS(=O)(=O)c1ccc(NC(=O)NCCCl)cc1` as well?
8300

Would you mind doing `O=C(NCCCl)Nc1ccc(S(=O)(=O)Oc2c(F)cccc2F)cc1` as well?
3200

Would you mind doing `O=C(NCCCl)Nc1ccc(S(=O)(=O)Oc2ccc(F)cc2F)cc1` as well?
9400

Would you mind doing `COc1ccc(OS(=O)(=O)c2ccc(NC(=O)NCCCl)cc2)cc1` as well?
15000

Hey, just so you know, these numbers are from ChEMBL document CHEMBL3632622.
